- EXPERIMENTAL PROTOCOL: Metabolic stability in rat liver microsomes assessed as half life in presence of NADPH at 0.5 uM by LC-MS/MS analysis
- Assay type: ADME, Microsome
MEASURED ENDPOINT: half-life at 0.5 µM (h)

INSERT INTO results (record_smiles, endpoint_result) VALUES
  ('C=C(C)[C@@H]1CC[C@]2(NCCN3CCS(=O)(=O)CC3)CC[C@]3(C)[C@H](CC[C@@H]4[C@@]5(C)CC=C(C6=CC[C@@](CF)(C(=O)O)CC6)C(C)(C)[C@@H]5CC[C@]43C)[C@@H]12', 1.5);

====

- EXPERIMENTAL PROTOCOL: Plasma protein binding in human by ultracentrifugation
- Format: ADME, cell-free
- APPLIED CONDITIONS: read-out: PPB (converted)
MEASURED ENDPOINT: fraction unbound

INSERT INTO assay_data (record_smiles, measured_endpoint, endpoint_result) VALUES
  ('C=C(C)[C@@H]1CC[C@]2(NCCN3CCS(=O)(=O)CC3)CC[C@]3(C)[C@H](CC[C@@H]4[C@@]5(C)CC=C(C6=CC[C@@](CF)(C(=O)O)CC6)C(C)(C)[C@@H]5CC[C@]43C)[C@@H]12', 'fraction unbound', 0.14);
